Data provenance is the supplement of paper PMC9170038.

- Test system: MS2 coat protein
- EXPERIMENT: apparent KD of MS2 coat protein, switch ON state; designed switch direction (-1 OFF switch, 1 ON switch): 1; higher = weaker reporter binding
- CONDITION_DETAILS: FMN input: 0 or 200 uM; Eterna round: R93 (includes R88 designs)
Could you label it rule met if measured apparent KD of MS2 coat protein is 30 nM or higher, and rule not met otherwise?

AAAAAACAUGAGGAUCACCCAUGUCAAAAGACAUGAGGAUAUGUACAGACUUCGGUCUGUACAGAAGGCAUGUAAA [SS1 - 1015] | rule not met

Problem: Given the entry AACAAACAUGAGGAUCACCCAUGUAAACAAACAUGAGGAUAUAUAACACAACAUCAACAGAUAGAAGGCAUAAAUA [JR_SS001_Sub1202] , answer whether its apparent KD of MS2 coat protein meets or surpasses 30 nM.
Result: rule met

Problem: Record AAAGAAGAAAGCGAGGAUAUGGAUGGGUAAACAUGAGGAUCACCCAUGUAUAAGAAAGAAAGAAACCAGAAGGCGCAAAAGAAAA [Khenemmaatre Hakor] ; criterion: apparent KD of MS2 coat protein no lower than 30 nM. Met?
Result: rule met

Problem: Record GAAAAACAUGAGGAUCACCCAUGUGUAAAUAUGGAAGGAUAUACAAAGACGGAAGUCAAAGUAGAAGGUCUAAAAG [Mat - Same State 1 - Eli mod - D18] ; criterion: apparent KD of MS2 coat protein no lower than 30 nM. Met?
Result: rule not met

Problem: Check the entry AUAAAACAUGAGGAUCACCCAUGUCAACAAAGUCGAGGAUAUGGGCAAAUAAAAUAAGAACCAGAAGGCGAAUAAU [Teenbexe] : does apparent KD of MS2 coat protein equal or exceed 30 nM?
Result: rule met

Problem: Hello, I need to know if AAGAAACAUGAGGAUCACCCAUGUACCCAAAAGCGAGGAUAUGGGAAAGAAAGAAAGAAACCAGAAGGCGCAUGAA [Darius II] has measured apparent KD of MS2 coat protein not below 30 nM. Thanks!
Result: rule not met
